Values compiled from patent US6699857B1.

MEASURE: melting point

Prompt line: I have this compound here, CC1SC(=O)NN=C1c1ccc2c(c1)CCCN2C(=O)c1cccs1 (stereo not drawn) [Example 18] , and I need its recorded melting point.
Response line: 190 to 191 °C

Prompt line: Entry CC1SC(=O)NN=C1c1ccc2c(c1)CCCN2C(=O)C1CCCCC1 (stereo not drawn) [Example 16] please
Response line: 148 to 150 °C (dec.)

Prompt line: Now give it for CCCCNC(=O)N1CCCc2cc(C3=NNC(=O)SC3C)ccc21 (stereo not drawn) [Example 5] too.
Response line: 133 to 134 °C

Prompt line: Another compound to look at: Cc1ccccc1NC(=O)N1CCCc2cc(C3=NNC(=O)SC3C)ccc21 (stereo not drawn) [Example 9]
Response line: 153 to 154 °C

Prompt line: Consider next the compound CC1SC(=O)NN=C1c1ccc2c(c1)CCCN2C(=O)Nc1ccc(Cl)cc1 (stereo not drawn) [Example 7] in the same way.
Response line: 218 to 220 °C (dec.)

Prompt line: Quick one: CC1SC(=O)NN=C1c1ccc2c(c1)CCCN2C(=O)Nc1cccc2ccccc12 (stereo not drawn) [Example 8]
Response line: 165 to 166 °C (dec.)

Prompt line: Same lookup for CC1SC(=O)NN=C1c1ccc2c(c1)CCCN2 (stereo not drawn) [Example 2] , please.
Response line: 176 to 178 °C

====

# melting point annotations

[[record]]
compound = "CC1SC(=O)NN=C1c1ccc2c(c1)CCCN2C(=O)c1ccco1 (centres unmarked)"
measured = "159 to 161 °C"

[[record]]
compound = "CC1SC(=O)NN=C1c1ccc2c(c1)CCCN2C(=O)NCc1ccc(F)cc1 (centres unmarked)"
measured = "158 to 160 °C"

[[record]]
compound = "CC1SC(=O)NN=C1c1ccc2c(c1)CCCN2C(=O)Nc1ccccc1 (centres unmarked)"
measured = "213 to 214 °C (dec.)"


Prompt line: Reported melting point, compound CC1SC(=O)NN=C1c1ccc2c(c1)CCCN2C(=O)Cc1c(Cl)cccc1Cl (centres unmarked) : ____
Response line: 188 to 189 °C

Prompt line: Repeat for the following compound: CCNC(=O)N1CCCc2cc(C3=NNC(=O)SC3C)ccc21 (centres unmarked)
Response line: 122 to 124 °C (dec.)

Prompt line: Also check CC1SC(=O)NN=C1c1ccc2c(c1)CCCN2C(=O)c1ccccc1 (centres unmarked)
Response line: 202 to 204 °C

Prompt line: Request: CC1SC(=O)NN=C1c1ccc2c(c1)CCCN2C(=O)CCc1ccccc1 (centres unmarked)
Response line: 172 to 174 °C

Prompt line: Note, next up: CCCNC(=O)N1CCCc2cc(C3=NNC(=O)SC3C)ccc21 (centres unmarked)
Response line: 151 to 153 °C
